Provide the recorded mean relative fluorescence intensity at 100 µM peptide for the entries that follow.
Target: T1, HLA-A*0201 molecule expressed on human T2 cells (human)
T1 construct: surface HLA-A2 detected with anti-HLA-A2-PE (clone REA517); also called HLA-A2
Experiment: T2 cell HLA-A*0201 binding assay, anti-HLA-A2-PE flow cytometry

Recorded mean relative fluorescence intensity at 100 µM peptide, per entry:
1) IVWSDVTYV (also called ENT187_B1) [MMP11-B1] = 80.2 % of HIV pol reference peptide
2) TLDQKLFMV (also called ENT180_B1) [ANKRD30A-B3] = 112 % of HIV pol reference peptide
3) RLQQELMTL [UBE2C-H3] = 82.4 % of HIV pol reference peptide
4) SLDQKLFQL [ANKRD30A-H3] = 97.1 % of HIV pol reference peptide
5) YLILEYAPL [AURKA-H1] = 164 % of HIV pol reference peptide

Please give mean relative fluorescence intensity at 100 µM peptide for each item listed below.
1. VMNPELLLL (also called ENT207_B3) [KIF2C-B12]
2. VLNPELLML (also called ENT207_B4) [KIF2C-B13]
3. KVWSDVTPL [MMP11-H1]
4. AINPELLQL (also called ENT207-H) [KIF2C-H1]
5. YLSGANLFV (also called CEACAM-B1; ENT188_B1) [CEACAM5-B1]

Result:
["67.7 % of HIV pol reference peptide", "50.3 % of HIV pol reference peptide", "82.5 % of HIV pol reference peptide", "64.9 % of HIV pol reference peptide", "76 % of HIV pol reference peptide"]
